Test system: Escherichia coli TOP10
Experiment: shrunken log2 fold change of peptide-encoding DNA abundance (4.5 h post-induction vs induction); higher = less antimicrobial activity (less host growth inhibition)
Conditions: time post-induction: 4.5 h; library: site-saturation at positions 5, 18, 19, 20
Decide using shrunken log2 fold change: a value greater than or equal to 0.07 is 1, a smaller one is 0.

See these solved cases before continuing.
Chain: RRIRDRPPRLPRPRPRPASLPRP
Class label: 1
//
Chain: RRIRGRPPRLPRPRPRPYGIPRP
Class label: 0

Input line: Form field: shrunken log2 fold change at least 0.07? Entry: "RRIRGRPPRLPRPRPRPKPIPRP"
Output line: 1

Input line: Form field: shrunken log2 fold change at least 0.07? Entry: "RRIRLRPPRLPRPRPRPLAYPRP"
Output line: 0

Input line: Form field: shrunken log2 fold change at least 0.07? Entry: "RRIRGRPPRLPRPRPRPHCYPRP"
Output line: 0

Input line: Form field: shrunken log2 fold change at least 0.07? Entry: "RRIRQRPPRLPRPRPRPKDTPRP"
Output line: 0

Input line: Form field: shrunken log2 fold change at least 0.07? Entry: "RRIRGRPPRLPRPRPRPDPWPRP"
Output line: 1

Input line: Form field: shrunken log2 fold change at least 0.07? Entry: "RRIRSRPPRLPRPRPRPCREPRP"
Output line: 1

Input line: Form field: shrunken log2 fold change at least 0.07? Entry: "RRIRPRPPRLPRPRPRPNVSPRP"
Output line: 0

Input line: Form field: shrunken log2 fold change at least 0.07? Entry: "RRIRDRPPRLPRPRPRPYKPPRP"
Output line: 0

---

System: Escherichia coli TOP10
Assay: shrunken log2 fold change of peptide-encoding DNA abundance (4.5 h post-induction vs induction); higher = less antimicrobial activity (less host growth inhibition)
Conditions: time post-induction: 4.5 h; library: site-saturation at positions 5, 18, 19, 20
Endpoint: shrunken log2 fold change
Lab note: record the figure alone, no unit after it.

Use these answered entries as a reference point.
Chain: RRIRARPPRLPRPRPRPVPDPRP
shrunken log2 fold change: 0.493
--
Chain: RRIRERPPRLPRPRPRPPCPPRP
shrunken log2 fold change: 1.27
--
Chain: RRIRGRPPRLPRPRPRPWHGPRP
shrunken log2 fold change: -0.163
--
Chain: RRIRNRPPRLPRPRPRPPNQPRP
shrunken log2 fold change: -0.0523
--
Chain: RRIRIRPPRLPRPRPRPWTRPRP
shrunken log2 fold change: -0.187

Input line: Which measured shrunken log2 fold change value corresponds to "RRIRIRPPRLPRPRPRPDEKPRP" ?
Output line: -0.0762

Input line: Which measured shrunken log2 fold change value corresponds to "RRIRRRPPRLPRPRPRPQICPRP" ?
Output line: -0.0654

Input line: Which measured shrunken log2 fold change value corresponds to "RRIRPRPPRLPRPRPRPHAVPRP" ?
Output line: 0.0549

Input line: Which measured shrunken log2 fold change value corresponds to "RRIRVRPPRLPRPRPRPYKRPRP" ?
Output line: -0.0182

Input line: Which measured shrunken log2 fold change value corresponds to "RRIRWRPPRLPRPRPRPDVRPRP" ?
Output line: -0.0136

Input line: Which measured shrunken log2 fold change value corresponds to "RRIRMRPPRLPRPRPRPPFPPRP" ?
Output line: 0.671

Input line: Which measured shrunken log2 fold change value corresponds to "RRIRTRPPRLPRPRPRPSGPPRP" ?
Output line: -0.339

---

Reported shrunken log2 fold change values are given for each entry in this list.
Test system: Escherichia coli TOP10
Experiment: shrunken log2 fold change of peptide-encoding DNA abundance (4.5 h post-induction vs induction); higher = less antimicrobial activity (less host growth inhibition)
Conditions: time post-induction: 4.5 h; library: site-saturation at positions 5, 18, 19, 20

Use these answered entries as a reference point.
Chain: RRIRDRPPRLPRPRPRPGAGPRP
shrunken log2 fold change: 0.914

Chain: RRIRGRPPRLPRPRPRPGDWPRP
shrunken log2 fold change: 1.34

Chain: RRIRARPPRLPRPRPRPVYRPRP
shrunken log2 fold change: 0.144

Chain: RRIRERPPRLPRPRPRPGMFPRP
shrunken log2 fold change: -0.837

Chain: RRIRKRPPRLPRPRPRPVQVPRP
shrunken log2 fold change: -0.0596

# ---- query sequence ----
Input line: Which measured shrunken log2 fold change value corresponds to "RRIRQRPPRLPRPRPRPVDYPRP" ?
Output line: 0.0237

---

Test system: Escherichia coli TOP10
Test: shrunken log2 fold change of peptide-encoding DNA abundance (4.5 h post-induction vs induction); higher = less antimicrobial activity (less host growth inhibition)
Conditions: time post-induction: 4.5 h; library: site-saturation at positions 5, 18, 19, 20
Endpoint: shrunken log2 fold change
Lab note: record the figure alone, no unit after it.

Chain: RRIRSRPPRLPRPRPRPFRVPRP
Target or test system: Escherichia coli TOP10
shrunken log2 fold change: 0.166

Chain: RRIRIRPPRLPRPRPRPIGKPRP
Target or test system: Escherichia coli TOP10
shrunken log2 fold change: -0.13

Chain: RRIRERPPRLPRPRPRPQVEPRP
Target or test system: Escherichia coli TOP10
shrunken log2 fold change: 0.0218

Input line: Which measured shrunken log2 fold change value corresponds to "RRIRQRPPRLPRPRPRPIESPRP" ?
Output line: -0.181

Input line: Which measured shrunken log2 fold change value corresponds to "RRIRQRPPRLPRPRPRPFMMPRP" ?
Output line: -0.25

Input line: Which measured shrunken log2 fold change value corresponds to "RRIRKRPPRLPRPRPRPQMCPRP" ?
Output line: -0.0359

Input line: Which measured shrunken log2 fold change value corresponds to "RRIRARPPRLPRPRPRPANTPRP" ?
Output line: 0.0584

Input line: Which measured shrunken log2 fold change value corresponds to "RRIRPRPPRLPRPRPRPKKHPRP" ?
Output line: -0.0812

---

Reported shrunken log2 fold change values are given for each entry in this list.
Test system: Escherichia coli TOP10
Assay: shrunken log2 fold change of peptide-encoding DNA abundance (4.5 h post-induction vs induction); higher = less antimicrobial activity (less host growth inhibition)
Conditions: time post-induction: 4.5 h; library: site-saturation at positions 5, 18, 19, 20
Lab note: record the figure alone, no unit after it.

Chain: RRIRYRPPRLPRPRPRPKARPRP
Target or test system: Escherichia coli TOP10
Endpoint: shrunken log2 fold change
Value measured: 0.0182
//
Chain: RRIRFRPPRLPRPRPRPDPFPRP
Target or test system: Escherichia coli TOP10
Endpoint: shrunken log2 fold change
Value measured: -0.341
//
Chain: RRIRDRPPRLPRPRPRPPIHPRP
Target or test system: Escherichia coli TOP10
Endpoint: shrunken log2 fold change
Value measured: -0.487

Input line: Enter reported shrunken log2 fold change observed with Escherichia coli TOP10 for "RRIRDRPPRLPRPRPRPMGAPRP"
Output line: 1.43

Input line: Enter reported shrunken log2 fold change observed with Escherichia coli TOP10 for "RRIRSRPPRLPRPRPRPMSQPRP"
Output line: -0.0303

Input line: Enter reported shrunken log2 fold change observed with Escherichia coli TOP10 for "RRIRERPPRLPRPRPRPVKIPRP"
Output line: -0.181

Input line: Enter reported shrunken log2 fold change observed with Escherichia coli TOP10 for "RRIRYRPPRLPRPRPRPPMFPRP"
Output line: -0.806

Input line: Enter reported shrunken log2 fold change observed with Escherichia coli TOP10 for "RRIRDRPPRLPRPRPRPPCEPRP"
Output line: 0.121

---

System: Escherichia coli TOP10;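 note: peptides expressed intracellularly from a pBAD plasmid library in pooled LB shake-flask culture, induced with 0.3% L-arabinose, DNA abundance read by NGS, three biological replicates, DESeq2 with apeglm shrinkage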
Test: shrunken log2 fold change of peptide-encoding DNA abundance (4.5 h post-induction vs induction); higher = less antimicrobial activity (less host growth inhibition)
Conditions: time post-induction: 4.5 h; library: site-saturation at positions 5, 18, 19, 20
Endpoint: shrunken log2 fold change

Use these answered entries as a reference point.
Chain: RRIRIRPPRLPRPRPRPDYNPRP
shrunken log2 fold change: -0.998
//
Chain: RRIRWRPPRLPRPRPRPLGRPRP
shrunken log2 fold change: 0.424
//
Chain: RRIRGRPPRLPRPRPRPYRCPRP
shrunken log2 fold change: -0.00655
//
Chain: RRIRQRPPRLPRPRPRPGCGPRP
shrunken log2 fold change: 0.442

Input line: Enter reported shrunken log2 fold change observed with Escherichia coli TOP10 for "RRIRLRPPRLPRPRPRPCMKPRP"
Output line: -0.101

Input line: Enter reported shrunken log2 fold change observed with Escherichia coli TOP10 for "RRIRMRPPRLPRPRPRPGANPRP"
Output line: 1.17

Input line: Enter reported shrunken log2 fold change observed with Escherichia coli TOP10 for "RRIRSRPPRLPRPRPRPREEPRP"
Output line: 0.369

Input line: Enter reported shrunken log2 fold change observed with Escherichia coli TOP10 for "RRIRCRPPRLPRPRPRPNFLPRP"
Output line: -0.265

Input line: Enter reported shrunken log2 fold change observed with Escherichia coli TOP10 for "RRIRLRPPRLPRPRPRPLPPPRP"
Output line: 0.678

Input line: Enter reported shrunken log2 fold change observed with Escherichia coli TOP10 for "RRIRHRPPRLPRPRPRPRFSPRP"
Output line: -0.137

Input line: Enter reported shrunken log2 fold change observed with Escherichia coli TOP10 for "RRIRCRPPRLPRPRPRPTIDPRP"
Output line: 0.0362

Input line: Enter reported shrunken log2 fold change observed with Escherichia coli TOP10 for "RRIRNRPPRLPRPRPRPYMAPRP"
Output line: -0.0692

Input line: Enter reported shrunken log2 fold change observed with Escherichia coli TOP10 for "RRIRDRPPRLPRPRPRPRKHPRP"
Output line: -0.134

Input line: Enter reported shrunken log2 fold change observed with Escherichia coli TOP10 for "RRIRIRPPRLPRPRPRPLLDPRP"
Output line: -0.444
